# EXPERIMENTAL_TARGET: human serum albumin (Homo sapiens, UniProt P02768 25-609)
# Sequence (P02768 25-609): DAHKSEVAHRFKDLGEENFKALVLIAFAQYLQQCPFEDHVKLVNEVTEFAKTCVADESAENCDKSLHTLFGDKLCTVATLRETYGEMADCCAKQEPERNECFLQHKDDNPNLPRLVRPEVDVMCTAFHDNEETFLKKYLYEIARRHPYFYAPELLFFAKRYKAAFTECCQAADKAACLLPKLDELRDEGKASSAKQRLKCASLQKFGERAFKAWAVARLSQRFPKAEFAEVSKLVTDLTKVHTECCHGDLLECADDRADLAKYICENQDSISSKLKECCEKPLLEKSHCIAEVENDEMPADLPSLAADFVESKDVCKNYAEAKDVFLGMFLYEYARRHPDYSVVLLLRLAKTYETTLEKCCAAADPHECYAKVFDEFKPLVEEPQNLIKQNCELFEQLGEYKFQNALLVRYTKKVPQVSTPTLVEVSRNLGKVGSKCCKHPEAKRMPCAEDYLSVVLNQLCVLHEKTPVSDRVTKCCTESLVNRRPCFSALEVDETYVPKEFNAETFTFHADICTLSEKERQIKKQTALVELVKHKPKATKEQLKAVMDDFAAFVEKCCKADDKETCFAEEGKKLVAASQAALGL
# EXPERIMENT: BLI; EMSA: 0.1 nmol siRNA conjugate, 5x molar excess albumin, 30 min at 37 C, 4-20% TGX gel; BLI: albumin 400 nM (or varied), buffer not in material
PROPERTY_MEASURED: pKd
Give bare numbers, as −log10 of the molar value.

BINDER: si<(EG30L)2 (dsRNA, 2'-F/2'-OMe, PS; 5' sense divalent stearyl, 30 EG per arm) RNA 1: CAAUUGCACUGAUAAUGAA RNA 2: UUCAUUAUCAGUGCAAUUG
OBSERVED_MEASUREMENT: 8.02

Now for a further binder.
Ask: I am curious: what pKd value has been reported for si<(EG18L)2 (dsRNA, 2'-F/2'-OMe, PS; 5' sense divalent stearyl, 18 EG per arm, proximal branch) RNA 1: CAAUUGCACUGAUAAUGAA RNA 2: UUCAUUAUCAGUGCAAUUG ?
Result: 7.52
